# ASSAY_METHOD_TEXT: recombinant barcode read abundance after kanamycin selection (control-corrected) (log10(CPM+1)); higher = more efficient recombination; sequences stand for … in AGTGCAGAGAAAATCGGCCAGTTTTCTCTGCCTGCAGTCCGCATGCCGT…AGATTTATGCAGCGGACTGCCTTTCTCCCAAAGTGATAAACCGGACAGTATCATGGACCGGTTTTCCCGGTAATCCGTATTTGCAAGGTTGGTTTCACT; site = the 11-nt target;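 further: IS621 recombinase and bridge RNA in Escherichia coli cells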
# maps each entry to its recombinant barcode read abundance (log10)
ASSAY_ENDPOINT: recombinant barcode read abundance (log10)

[[record]]
seq_text = "CTCGGATCTTGGGTTCTAACCTGTTGCCT (site CTCGGATCTAG)"
measured_value = 1.3

[[record]]
seq_text = "TTGCTAACTTGGGTTCTAACCTGTTGCCT (site TTGCAAACTAG)"
measured_value = 0.0817

[[record]]
seq_text = "ACATGAACTTGGGTTCTAACCTGTTGCAT (site ACATGGACTAT)"
measured_value = 0.141

[[record]]
seq_text = "CCACAGTCTTGGGTTCTAACCTGTTGCCT (site CCACTGTCTAG)"
measured_value = 0.0628

[[record]]
seq_text = "GTCCGGTCTTGGGTTCTAACCTGTTGCTT (site GTCCGGTCTAA)"
measured_value = 1.07

[[record]]
seq_text = "TGCCTATCTTGGGTTCTAACCTGTTGCCT (site TTCCTATCTAG)"
measured_value = 0.0491

[[record]]
seq_text = "ATGGCCTCTTGGGTTCTAACCTGTTGCCT (site ATGTCCTCTAG)"
measured_value = 0.0804

[[record]]
seq_text = "GAGTGGCCTTGGGTTCTAACCTGTTGCAT (site GAGTGGCCTAT)"
measured_value = 0.883

[[record]]
seq_text = "GATCAACCTTGGGTTCTAACCTGTTGCCT (site GCTCAACCTAG)"
measured_value = 0.0583

[[record]]
seq_text = "CCACTACCTTGGGTTCTAACCTGTTGCCT (site CCACTGCCTAG)"
measured_value = 0.0373

[[record]]
seq_text = "AGTAAGACTTGGGTTCTAACCTGTTGCCT (site AGTAAGACTAT)"
measured_value = 0.2

[[record]]
seq_text = "AGAAAAGCTTGGGTTCTAACCTGTTGCAA (site CATGCTTCTAG)"
measured_value = 0.295

[[record]]
seq_text = "GGTCTGCCTTGGGTTCTAACCTGTTGCCT (site CGTCTGCCTAG)"
measured_value = 0.252

[[record]]
seq_text = "TGAAAGCCTTGGGTTCTAACCTGTTGCTT (site TGGAAGTCTAA)"
measured_value = 0.0888

[[record]]
seq_text = "TAAGTGTCTTGGGTTCTAACCTGTTGCCT (site TACGTGTCTAG)"
measured_value = 0.171

[[record]]
seq_text = "GTGTACCCTTGGGTTCTAACCTGTTGCGC (site GTGTACCCTCC)"
measured_value = 0.141

